- Test system: LOC_OS05G30820-cb001;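 further: purified Escherichia coli-expressed rice kinase domain construct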
- METHOD NOTES: thermal shift delta Tm vs DMSO control; higher = stronger stabilization (binding)
- CONDITIONS: 12.5 µM; protein concentration 2 µM
Each entry gets -1 if its thermal shift delta Tm stays under 0.6 °C, and 1 if its thermal shift delta Tm is 0.6 °C or above.

COMPOUND	GROUP
CC(C)(C)S(=O)(=O)c1ccc2nccc(Nc3n[nH]c4ccc(F)cc34)c2c1	-1
Oc1cc(O)cc(/C=C/c2ccc(O)c(O)c2)c1	1
CN1CCN(c2ccc(OC(F)(F)F)c(Nc3ncc4c(n3)-c3c(c(C(N)=O)nn3CCO)CC4)c2)CC1	-1
CCn1c(-c2nonc2N)nc2cnc(Oc3cccc(NC(=O)c4ccc(OCCN5CCOCC5)cc4)c3)cc21	1
CC1(C)OCCn2c1nc1c(N3CCOCC3)nc(-c3cnc(N)nc3)nc12	-1
CC1(C)C=Cc2c(ccc3c2OC[C@@H](c2ccc(O)cc2O)C3)O1	-1
COCCNCc1ccc(-c2cc3nccc(Oc4ccc(NC(=O)C5(C(=O)Nc6ccc(F)cc6)CC5)cc4F)c3s2)nc1	-1
NC(=O)c1ncn([C@@H]2O[C@H](CO)[C@@H](O)[C@H]2O)c1N	-1
CCN(CC)CCCCNc1ncc2cc(-c3cc(OC)cc(OC)c3)c(NC(=O)NC(C)(C)C)nc2n1	-1
CC1(COc2ccc3c(c2)ncn3-c2ccc3cccc(N4CCC(N)CC4)c3n2)COC1	1
CCCS(=O)(=O)Nc1ccc(F)c(C(=O)c2c[nH]c3ncc(Cl)cc23)c1F	1
CC(C)NC[C@@H](C(=O)N1CCN(c2ncnc3c2[C@H](C)C[C@H]3O)CC1)c1ccc(Cl)cc1	-1
CC(C)=CC[C@@H](O)C1=CC(=O)c2c(O)ccc(O)c2C1=O	-1
CN1CCC(COc2cnc(-c3cccc(Cn4nc(-c5cccc(C#N)c5)ccc4=O)c3)nc2)CC1	-1
CCN(CC)CCNC(=O)c1c(C)[nH]c(/C=C2\C(=O)Nc3ccc(F)cc32)c1C [Sunitinib]	1
CC(C)(C)c1nc(-c2cccc(NS(=O)(=O)c3c(F)cccc3F)c2F)c(-c2ccnc(N)n2)s1	1
CCN1CCN(Cc2ccc(-c3cc4c(N[C@H](C)c5ccccc5)ncnc4[nH]3)cc2)CC1	-1
COc1cc(OC)cc(-c2cc3cnc(N)nc3nc2NC(=O)NC(C)(C)C)c1	-1
O=C(O)c1ccc(Nc2ncc3c(n2)-c2ccc(Cl)cc2C(c2c(F)cccc2F)=NC3)cc1	-1
CCn1c(N)c(C(=O)NC)c(=O)c2ccc(C#CC(C)(O)COC)nc21 (stereo not given)	1
COc1cc2ncnc(Nc3cccc(Cl)c3)c2cc1OC	1
CC(=O)Nc1nc(C)c(-c2ccc(Cl)c(S(=O)(=O)NCCO)c2)s1	-1
O=C1Nc2ccccc2/C1=C1/Nc2ccccc2C1=O	1
Cc1ccc(Nc2cc(N[C@@H]3CCCC[C@@H]3N)nnc2C(N)=O)nc1C	1
Cc1cc(N2CCOCC2)cc2[nH]c(-c3c(NC[C@@H](O)c4cccc(Cl)c4)cc[nH]c3=O)nc12	1
C=CC(=O)N1CC[C@@H](Oc2nc(Nc3ccc(N4CCC(N5CCN(C)CC5)CC4)cc3)c(C(N)=O)nc2CC)C1	-1
CCN1CCN(Cc2ccc(C(=O)Nc3ccc(C)c(Oc4ccc5c(c4)CC(=O)N5)c3)cc2C(F)(F)F)CC1	-1
CN1CCN(c2cccc(Nc3nc4c(-c5ccc(S(C)(=O)=O)cc5)cccn4n3)c2)CC1	1
COc1ccc(COc2cc3oc(=O)c4cc(C(C)O)ccc4c3cc2OC)cc1 (stereo not given)	1
CNc1nc(Nc2cn(C(C)(C)C#N)nc2C)ncc1C(F)(F)F	-1
CNC(=O)c1cc(Oc2ccc3nc(N[C@@H]4CCCC[C@H]4O)sc3c2)ccn1	-1
C=CC(=O)Nc1cccc(Nc2nc(Nc3ccc(NC4CN(CCF)C4)cc3OC)ncc2C(F)(F)F)c1	-1
N#CCNC(=O)c1ccc(-c2ccnc(Nc3ccc(N4CCOCC4)cc3)n2)cc1	1
COc1ccc(-c2ccc3c(N4CCOCC4)nc(N4C[C@@H](C)O[C@@H](C)C4)nc3n2)cc1CO	-1
CNC(=O)c1ccc(-c2cnc3ncc(Cc4ccc5ncccc5c4)n3n2)cc1F	-1
